// data source = paper PMC12314051

test system: WI-38 cells; assay: MTT cytotoxicity assay, normal WI-38; type: cell-based; details: Homo sapiens; normal WI-38, MTT assay; read-out: IC50 (mean ± SD)
pIC50: −log10 of the molar value.
measurementLabel: pIC50

[
  {
    "molecule": "Cc1occ(Sc2nc3ccccc3c(=O)n2-c2ccccc2)c1C1=NNC(c2ccc(Cl)cc2)C1 (centres unmarked)",
    "relationSymbol": "<",
    "experimentalValue": 4.00
  },
  {
    "molecule": "Cc1occ(Sc2nc3ccccc3c(=O)n2-c2ccccc2)c1C1CC(c2ccc(F)cc2)Nc2ccccc2N1 (centres unmarked)",
    "relationSymbol": "=",
    "experimentalValue": 4.07
  },
  {
    "molecule": "O=C(CCl)Sc1nc2ccccc2c(=O)n1-c1ccccc1",
    "relationSymbol": "=",
    "experimentalValue": 4.12
  },
  {
    "molecule": "COc1ccc(C=CC(=O)c2c(Sc3nc4ccccc4c(=O)n3-c3ccccc3)coc2C)cc1",
    "relationSymbol": "=",
    "experimentalValue": 4.27
  },
  {
    "molecule": "Cc1occ(Sc2nc3ccccc3c(=O)n2-c2ccccc2)c1C1CC(c2ccco2)Nc2ccccc2N1 (centres unmarked)",
    "relationSymbol": "=",
    "experimentalValue": 4.38
  },
  {
    "molecule": "Cc1occ(Sc2nc3ccccc3c(=O)n2-c2ccccc2)c1C1=NN(C(N)=S)C(c2ccc(F)cc2)C1 (centres unmarked)",
    "relationSymbol": "=",
    "experimentalValue": 4.57
  },
  {
    "molecule": "COc1ccc(-c2cc(-c3c(Sc4nc5ccccc5c(=O)n4-c4ccccc4)coc3C)ncc2C#N)cc1",
    "relationSymbol": "=",
    "experimentalValue": 4.75
  },
  {
    "molecule": "CCOC(=O)C1C(=O)C=C(c2c(Sc3nc4ccccc4c(=O)n3-c3ccccc3)coc2C)CC1c1ccc(F)cc1 (centres unmarked)",
    "relationSymbol": "=",
    "experimentalValue": 4.35
  },
  {
    "molecule": "Cc1occ(Sc2nc3ccccc3c(=O)n2-c2ccccc2)c1C(=O)C=Cc1ccc(F)cc1",
    "relationSymbol": "=",
    "experimentalValue": 4.54
  },
  {
    "molecule": "Cc1occ(Sc2nc3ccccc3c(=O)n2-c2ccccc2)c1C1=NN(C(N)=S)C(c2ccc(Cl)cc2)C1 (centres unmarked)",
    "relationSymbol": "=",
    "experimentalValue": 4.20
  },
  {
    "molecule": "Cc1occ(Sc2nc3ccccc3c(=O)n2-c2ccccc2)c1C1=NN(c2nc(Cl)cs2)C(c2ccc(Cl)cc2)C1 (centres unmarked)",
    "relationSymbol": "=",
    "experimentalValue": 4.40
  }
]
